Values compiled from paper PMC9482650.

Target: SCRIB_2, Q14160
Sequence (Q14160 857-960): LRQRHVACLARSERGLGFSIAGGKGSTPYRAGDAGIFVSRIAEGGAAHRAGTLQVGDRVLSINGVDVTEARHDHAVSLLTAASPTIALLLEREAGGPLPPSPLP
Assay: holdup assay
Design: key: below the threshold = too weak to quantify, mostly under pKd 3.1 to 4
Conditions: plain residues with an end cap or a label only (N-terminal biotin on a linker: ado-ado)
measured-property: pKd

In [3]: df
Out[3]:
                         binder  measured_property             measured
0     KPGKGSETVV [FZD4, Q9ULV1]                pKd                 3.83
1    RSSGGDDFWF [KCNV1, Q6PIU1]                pKd  below the threshold
2    RQKEVRESKC [SCN8A, Q9UQD0]                pKd                 3.82
3  RFQQRMQTHV [KIRREL1, Q96J84]                pKd                  4.1
4   RDPPAEWTRV [PTPN18, Q99952]                pKd                 4.12

For each entry beneath this line, provide reported pKd.
1. NNNVVKVDSV [MTNR1A, P48039]
2. QSYPSKHDYV [CLDN18, P56856]
3. LKDDELKTKL [SLCO1A2, P46721]

Response line:
["below the threshold", "below the threshold", "below the threshold"]
